- procedure summary: in vitro
- reported conditions: human, hela cells, % viability
Entries and their viability at 28.5 h, 10 µM values follow.
Write down the numeric answer in % and omit the unit.

Please review the entries below; each comes with its answer.
compound: CN(C1CCCCC1)S(=O)(=O)c1cc(Cl)ccc1Cl
viability at 28.5 h, 10 µM (%): 118

compound: O=C(c1ccco1)N1CCN(C(=O)c2c(F)cccc2F)CC1
viability at 28.5 h, 10 µM (%): 86.3

compound: O=C(c1ccco1)N1CCN(c2cncc(-c3ccc(F)cc3F)n2)CC1
viability at 28.5 h, 10 µM (%): 93.7

compound: O=C(O)C1CCC1C(=O)N1CCN(c2ccc(C(F)(F)F)cn2)CC1 (stereo not shown)
viability at 28.5 h, 10 µM (%): 93.7

compound: O=C(Nc1ccc(C2(c3ccc(NC(=O)c4cccc5ccccc45)cc3)c3ccccc3-c3ccccc32)cc1)c1cccc2ccccc12
viability at 28.5 h, 10 µM (%): 102

Input: Look up viability at 28.5 h, 10 µM of CCCc1oc(C(=O)O)cc1CN1CCOCC1 [CBK267984C] and report it.
Output: 106

Input: Look up viability at 28.5 h, 10 µM of Cc1nccn1CCNC(=O)CC1C(=O)N(C)c2ccccc21 (stereo not shown) and report it.
Output: 101

Input: Look up viability at 28.5 h, 10 µM of CCOC(=O)[C@H]1CC[C@]2(CC1)CNC(=O)c1ccccc1O2 and report it.
Output: 92.5

Input: Look up viability at 28.5 h, 10 µM of OC(COc1ccc(Br)cc1)CN1CCCN(c2nc3ccc(Cl)cc3s2)CC1 (stereo not shown) and report it.
Output: 93.5

Input: Look up viability at 28.5 h, 10 µM of COc1ccc(CCC(=O)Nc2nnc[nH]2)cc1 and report it.
Output: 101

====

- procedure summary: in vitro
- reported conditions: human, hela cells, % viability
Entries and their viability at 28.5 h, 10 µM values follow.
Write down the numeric answer in % and omit the unit.

Please review the entries below; each comes with its answer.
smiles input: c1ccc2oc(CN3Cc4nc[nH]c4C[C@H]3c3nc(-c4cnccn4)no3)cc2c1
uom: %
viability at 28.5 h, 10 µM: 113
//
smiles input: O=C(NC(=S)Nc1ccc2oc(-c3ccncc3)nc2c1)c1cc(Br)ccc1Cl
uom: %
viability at 28.5 h, 10 µM: 87.8
//
smiles input: COc1ccc(NC(S)=NCCN2CCC(C)CC2)cc1Cl
uom: %
viability at 28.5 h, 10 µM: 84
//
smiles input: Cc1ccc(-c2nc(C)c(C(=O)Nc3ccc(-n4cncn4)nc3)s2)o1
uom: %
viability at 28.5 h, 10 µM: 95.3
//
smiles input: Cc1ccc(/C=C/C(=O)O)cc1S(=O)(=O)NCCO
uom: %
viability at 28.5 h, 10 µM: 93.2

Input: Look up viability at 28.5 h, 10 µM of CCN(CC(=O)NCc1ccccn1)S(=O)(=O)c1ccccc1 and report it.
Output: 90.2

Input: Look up viability at 28.5 h, 10 µM of Cc1cc(/C=C(/C#N)c2nc3ccccc3[nH]2)c(C)n1-c1ccc(S(N)(=O)=O)cc1 and report it.
Output: 77.8

Input: Look up viability at 28.5 h, 10 µM of CC(=O)Nc1ccc(Nc2cc(-c3ccsc3)ncn2)cc1 and report it.
Output: 96.8

Input: Look up viability at 28.5 h, 10 µM of CCN(Cc1ccc(C#N)cc1F)C(=O)Nc1cnn(CC)c1 and report it.
Output: 93.1

====

- procedure summary: in vitro
- reported conditions: human, hela cells, % viability
experimental endpoint: viability at 28.5 h, 10 µM (%)
Write down the numeric answer in % and omit the unit.

Input: Look up viability at 28.5 h, 10 µM of C=CCSc1nc(-c2ccc(OCCC)cc2)n[nH]1 and report it.
Output: 100

====

- procedure summary: in vitro
- reported conditions: human, hela cells, % viability
experimental endpoint: viability at 28.5 h, 10 µM (%)
Write down the numeric answer in % and omit the unit.

compound: CC(C)(O)C#Cc1ccc(C(=O)N2CCN(C/C=C/c3ccccc3)CC2)s1
experimental endpoint: viability at 28.5 h, 10 µM
uom: %
recorded result: 99.5
--
compound: Cc1cc(Cl)cc(Br)c1OCCNCCN1CCOCC1 [CBK268615G]
experimental endpoint: viability at 28.5 h, 10 µM
uom: %
recorded result: 111
--
compound: COc1c(Cl)ccc(Cl)c1C(=O)OCC(=O)O
experimental endpoint: viability at 28.5 h, 10 µM
uom: %
recorded result: 115
--
compound: CN1CCN(C(=O)c2cccc(-c3nc(-c4ccc(C#N)cc4)cnc3N)c2)CC1
experimental endpoint: viability at 28.5 h, 10 µM
uom: %
recorded result: 100
--
compound: Cc1nn(C)c(C)c1C(C)NS(=O)(=O)Cc1cccc(F)c1 (centres unmarked)
experimental endpoint: viability at 28.5 h, 10 µM
uom: %
recorded result: 107
--
compound: CCCCN(C)c1c(CC)nc2ccc(C(=O)NCCc3ccccn3)cn12
experimental endpoint: viability at 28.5 h, 10 µM
uom: %
recorded result: 98.4
--
compound: Nc1ccc(-c2nc(NC(=O)c3cccs3)cnc2-c2ccc(F)cc2)cc1
experimental endpoint: viability at 28.5 h, 10 µM
uom: %
recorded result: 94.2
--
compound: Cc1cnn(CC(=O)N2CCC(c3cc4ncccc4[nH]3)CC2)c1
experimental endpoint: viability at 28.5 h, 10 µM
uom: %
recorded result: 77.2

Input: Look up viability at 28.5 h, 10 µM of S=C(NCCN1CCCCC1)NCC1CCCO1 (centres unmarked) and report it.
Output: 107

Input: Look up viability at 28.5 h, 10 µM of Cc1ccc(-c2nc3ccccc3[nH]2)cc1NC(=O)COc1cccc([N+](=O)[O-])c1 and report it.
Output: 94.3

Input: Look up viability at 28.5 h, 10 µM of COc1ccc(CNc2nc[nH]n2)c(OC)c1OC and report it.
Output: 103

Input: Look up viability at 28.5 h, 10 µM of CCCc1nnc([C@H]2CCN(Cc3ccc(S(C)(=O)=O)cc3)C2)o1 and report it.
Output: 100

Input: Look up viability at 28.5 h, 10 µM of O=C(Nc1cccc(C(F)(F)F)c1)Nc1cc(N2CCNCC2)c2occc2c1 [CBK061746C] and report it.
Output: 91.4

Input: Look up viability at 28.5 h, 10 µM of Cc1nn(Cc2ccccc2)c(C)c1CNC(=O)c1nc(Cl)ccc1Cl and report it.
Output: 93.8

Input: Look up viability at 28.5 h, 10 µM of Cn1cc(C2CCCN2C(=O)Cc2csc3ccccc23)cn1 (centres unmarked) and report it.
Output: 102

Input: Look up viability at 28.5 h, 10 µM of COC(=O)COc1ccc(S(=O)(=O)N2CCC(C(N)=O)CC2)cc1 and report it.
Output: 96.7

Input: Look up viability at 28.5 h, 10 µM of OCc1ccccc1-c1cnc(N2CCOCC2)c2nccn12 and report it.
Output: 110

Input: Look up viability at 28.5 h, 10 µM of CN(C)C(=O)c1ccc(Cn2ccnc(N3CCC(Sc4ccccc4)CC3)c2=O)cc1 and report it.
Output: 107

Input: Look up viability at 28.5 h, 10 µM of O=C1CCC(C(=O)N2CCN(S(=O)(=O)c3ccccc3Cl)CC2)N1 (centres unmarked) and report it.
Output: 77.6

Input: Look up viability at 28.5 h, 10 µM of CN1CCN(C(=O)c2c(NS(=O)(=O)c3cc(F)c(Br)cc3F)sc3c2CCCC3)CC1 and report it.
Output: 90.5

Input: Look up viability at 28.5 h, 10 µM of CC(C)(C)c1ccc(/C=N/NC(=O)CCSc2ccc(Cl)cc2)cc1 and report it.
Output: 105

Input: Look up viability at 28.5 h, 10 µM of Cc1onc(-c2ccccc2)c1C(=O)N1CCC1 and report it.
Output: 90.6

Input: Look up viability at 28.5 h, 10 µM of CC(=O)Nc1ccc(CN2CCCC(c3cc4ncccc4[nH]3)C2)cc1 (centres unmarked) and report it.
Output: 92.4

Input: Look up viability at 28.5 h, 10 µM of O=C(Cn1cc(C(=O)NC2(c3ccccc3)CCCC2)ccc1=O)NCc1ccc(F)cc1 and report it.
Output: 84.4

Input: Look up viability at 28.5 h, 10 µM of O=C(Nc1ccc2nc(-c3ccco3)c(-c3ccco3)nc2c1)N1CCCCCC1 and report it.
Output: 85.4

Input: Look up viability at 28.5 h, 10 µM of CCSc1nc(=O)c2c(n1C)NC(=O)CC2c1ccc(OC)cc1 (centres unmarked) and report it.
Output: 89.9

Input: Look up viability at 28.5 h, 10 µM of CN(C)CCn1cnc2c1c(=O)[nH]c(=O)n2Cc1ccccc1 and report it.
Output: 96.9

Input: Look up viability at 28.5 h, 10 µM of C=CCN1CCC(C(=O)NC(C)c2cc(OC)ccc2OC)CC1 (centres unmarked) and report it.
Output: 116

Input: Look up viability at 28.5 h, 10 µM of Cc1ccc(-c2nc3ncccc3o2)cc1NC(=O)c1ccc(F)cc1 and report it.
Output: 103

Input: Look up viability at 28.5 h, 10 µM of Nc1ncc(-c2ccccc2)nc1NC1CCOCC1 and report it.
Output: 97.3

Input: Look up viability at 28.5 h, 10 µM of CCOC(=O)c1sc(NS(=O)(=O)c2ccc(Cl)c(Cl)c2)nc1C and report it.
Output: 92.5

Input: Look up viability at 28.5 h, 10 µM of CCCc1[nH]nc(O)c1Cc1cc(C(F)(F)F)ccc1Cl and report it.
Output: 96.9
